Measured values drawn from patent US11618747B2 for this set.

- systemUnderTest: ligand-binding domain (LBD) of LXRα (Homo sapiens)
- Construct: expressed in transfected cells; host or cells: HEK293
- Sequence (Q13133 155-447): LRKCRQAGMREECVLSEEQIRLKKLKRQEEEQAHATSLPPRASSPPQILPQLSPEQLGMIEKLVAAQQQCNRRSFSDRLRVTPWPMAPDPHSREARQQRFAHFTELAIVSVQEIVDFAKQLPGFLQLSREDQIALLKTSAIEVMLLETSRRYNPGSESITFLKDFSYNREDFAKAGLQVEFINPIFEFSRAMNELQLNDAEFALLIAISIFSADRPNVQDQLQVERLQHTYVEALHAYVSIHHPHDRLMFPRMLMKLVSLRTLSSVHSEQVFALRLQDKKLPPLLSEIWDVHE
- assay: LXR Gal4 reporter transient transfection assay (LBD-M2H Gal4α)
- Format: cell-based
- assaySetup: HEK293 cells, LXRα LBD; read-out: LBD-M2H Gal4α (EC50 range)
- Protocol: The tested compounds were usually dissolved, tested and stored as 20 mM stock solutions in DMSO. […] LXRα and LXRβ activity status was determined via detection of interaction with coactivator and corepressor proteins in mammalian two-hybrid experiments (M2H). […] Interaction was monitored via activation of a coexpressed Firefly Luciferase Reporter gene under control of a promoter containing repetitive GAL4 response elements (vector pFRLuc; Stratagene). […]
pEC50: −log10 of the molar value.
The entries below are paired with their reported pEC50.

N#Cc1nccnc1-c1c(-c2cccs2)n(S(=O)(=O)c2ccc(Cl)cc2)c2ccccc12 [20/7] | 6.00 to 7.00
Cc1ccc(S(=O)(=O)n2c(-c3cccc(N4CC(C(=O)O)C4)c3)c(-c3ccsc3C#N)c3cc(F)c(Cl)cc32)cc1 [3/43] | 6.00 to 7.00
N#Cc1sccc1-c1c(-c2cccc(C3CC3C(=O)O)c2)n(S(=O)(=O)C2CC2)c2ccccc12 (stereo not shown) [30/12] | 5.00 to 6.00

In: Looking for the measured pEC50 of N#Cc1sccc1-c1c(-c2ccc(F)cc2)n(S(=O)(=O)c2ccc(Cl)cc2)c2ccccc12 [26/1] , can you help?
Out: 6.00 to 7.00

In: Looking for the measured pEC50 of CS(=O)(=O)NC(=O)C1CC1c1cccc(-c2c(-c3ccsc3C#N)c3ccccc3n2S(=O)(=O)c2ccc(Cl)cc2)c1 (stereo not shown) [32/1] , can you help?
Out: 6.00 to 7.00

In: Looking for the measured pEC50 of Cc1ccc(S(=O)(=O)n2c(-c3cccc(C4CC4C(=O)O)c3)c(-c3ccsc3F)c3ccccc32)cc1 (stereo not shown) [30/14] , can you help?
Out: 6.00 to 7.00

In: Looking for the measured pEC50 of N#Cc1ccncc1-c1c(-c2cccs2)n(S(=O)(=O)c2ccc(Cl)cc2)c2ccccc12 [20/2] , can you help?
Out: 6.00 to 7.00

In: Looking for the measured pEC50 of Cc1ccc(S(=O)(=O)n2c(-c3cccc(-c4cncc(C(C)(C)C(=O)O)c4)c3)c(-c3ccsc3C#N)c3ccccc32)cc1 [30/3] , can you help?
Out: 6.00 to 7.00

In: Looking for the measured pEC50 of N#Cc1sccc1-c1c(-c2ccc(C3CC3C(=O)O)s2)n(S(=O)(=O)c2ccc(Cl)cc2)c2ccccc12 (stereo not shown) [30/8] , can you help?
Out: 6.00 to 7.00

In: Looking for the measured pEC50 of O=S(=O)(c1ccc(Cl)cc1)n1c(-c2cccs2)c(-c2ccsc2C(F)F)c2ccccc21 [20/3] , can you help?
Out: > 7.00

In: Looking for the measured pEC50 of N#Cc1sccc1-c1c(-c2cccs2)n(S(=O)(=O)c2ccc(Cl)cc2)c2ccc(OCCCC(=O)O)cc12 [15/1] , can you help?
Out: 6.00 to 7.00

In: Looking for the measured pEC50 of N#Cc1cscc1-c1c(-c2cccs2)n(S(=O)(=O)c2ccc(Cl)cc2)c2ccccc12 [20/4] , can you help?
Out: > 7.00

In: Looking for the measured pEC50 of N#Cc1sccc1-c1c(-c2cccs2)n(S(=O)(=O)c2cccc3ccccc23)c2ccccc12 [1/27] , can you help?
Out: 6.00 to 7.00

In: Looking for the measured pEC50 of Cc1ccc(S(=O)(=O)n2c(-c3ccsc3)c(-c3ccsc3C#N)c3ccccc32)cc1 [1/23] , can you help?
Out: > 7.00

In: Looking for the measured pEC50 of N#Cc1sccc1-c1c(-c2ccccc2)n(S(=O)(=O)c2cccnc2)c2ccccc12 [1/41] , can you help?
Out: 6.00 to 7.00

In: Looking for the measured pEC50 of Cc1ccc(S(=O)(=O)n2c(-c3ccc(CC(C)(C)C(=O)O)s3)c(-c3ccsc3C#N)c3ccccc32)cc1 [3/16] , can you help?
Out: 6.00 to 7.00
